- System: adjuvant induced arthritis in rats
- assay overview: Adjuvant-induced arthritis in rats
- Format: in vivo, rat
- assay conditions: peptides 7 mg/rat; CS 50 mg/kg; DXM 2 mg/kg
property measured: EFFECT on adjuvant induced arthritis

Worked examples, 5 substances total:
substance	EFFECT on adjuvant induced arthritis
H-LRILLLGV-OH [Peptide H, L R I L L L G V]	Protective
H-MGLRILLL-OH [Peptide A, M G L R I L L L]	Protective
H-LGILLLKV-OH [I, L G I L L L K V]	Protective
H-ILLLKVAG-OH [B, I L L L K V A G]	Protective
H-LGILLLGV-OH [C, L G I L L L G V]	No effect

Look up EFFECT on adjuvant induced arthritis with adjuvant induced arthritis in rats for this substance: H-GLRILLLKV-OH [CP, G L R I L L L K V] Protective

Look up EFFECT on adjuvant induced arthritis with adjuvant induced arthritis in rats for this substance: H-LDILLLEV-OH [E, L D I L L L E V] No effect
